# self-cleavage annotations
B1: Osa-1-4 twister ribozyme (parent)
chain: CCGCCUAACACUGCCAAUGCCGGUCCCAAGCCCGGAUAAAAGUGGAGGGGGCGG

# Variants of: B1
# PROTOCOL: self-cleavage, relative activity (ratio to wild type); higher = more cleavage; co-transcriptional

MUTANT LABEL | self-cleavage
A16C A7C | 0.07
C9A G30U | 0.01
A38C C32A | 0.09
C9U G53U | 0.17
C31A G22U | 0.04
A16G U12G | 0.55
C25G G54C | 0.07
A10C U18G | 0.24
A39C G34U | 0.42
C20G U12C | 0.07
A8G U12G | 0.15
A10C G35C | 0.03
A28C C33A | 0.12
C33A G22A | 0.87
A39C A7U | 0.06
G30C G48U | 0.02
A16U G42C | 0.33
C25A G47U | 0.04
C14U C52G | 0.28
A16U A46U | 0.05
G23U G45A | 0.04
C9U G22U | 0.26
C32U C52U | 0.2
C52A G30A | 0.04
C25A G42A | 0.06
A38U A7U | 0.12
C33U G34U | 0.13
C52U G45U | 0.17
A39U U43G | 0.18
A29U G51C | 0.05
A8U G48U | 0.04
G42C G47U | 0.06
A29U U24A | 0.32
A46G C15A | 0.06
C15A G34A | 0.23
A40G C21A | 0.25
C20U U43A | 0.84
C11A C32G | 0.07
A40G C26G | 0.14
C26G C33A | 0.05
C31U C52U | 0.96
A29C C9A | 0.02
A7C G47U | 0.03
A17U G54A | 0.99
G13A G53C | 0.03
G53C U12A | 0.07
A38U G42U | 0.08
C26U G19A | 0.14
C21G G23U | 0.07
A17U G23A | 0.56
G35U G53U | 0.17
C20A C25A | 0.19
A38U G51U | 0.32
G30A U37A | 0.03
A8C C14G | 0.03
A7C G23U | 0.02
G22A U37A | 1.06
A7C C14U | 0.04
G48A U18C | 0.1
G13A G47C | 0.03
A29U G35A | 0.11
G51U U37C | 0.51
C33U G30C | 0.04
G19C G48A | 0.02
A40C G53C | 0.04
C11G G49U | 0.05
A41G C25A | 0.07
A28C G49U | 0.13
A28U G22U | 0.2
C25U G22C | 0.07
G49C U18A | 0.05
A41C C15G | 0.14
A46U G13C | 0.02
G47U G53U | 0.1
C31A G47C | 0.02
A10G G50A | 0.49
A29C G51A | 0.03
A39U A41G | 0.26
G23C U12A | 0.04
A41U C31A | 0.04
C33A U18C | 0.12
A7U C33G | 0.03
C33A G54C | 0.07
C31U G49A | 0.06
